Recorded Ki by entry
- Target Desc: Muscarinic acetylcholine receptor
- Measurement Description: Binding affinity for muscarinic receptor site in rat hippocampus was determined using competitive radioligand binding assays employing [3H]OXO-M
- Assay type: tissue-based
Measurement Label: Ki (µM)

compound=CC(=O)C1=CCN(C)CC1 unit_label=µM relation_symbol== reported_measurement=5.425
compound=CN1CC=C(C(=O)C(C)(C)C)CC1 unit_label=µM relation_symbol== reported_measurement=6.25
compound=CCCC(=O)C1=CCCN(C)C1 unit_label=µM relation_symbol== reported_measurement=2.73
compound=CC(=O)C1=CCCN(C)C1 unit_label=µM relation_symbol== reported_measurement=4.38
compound=CC#CC(=O)C1=CCCN(C)C1 unit_label=µM relation_symbol== reported_measurement=1.65
compound=CCC(=O)C1=CCN(C)CC1 unit_label=µM relation_symbol=> reported_measurement=5
compound=CN1CCC=C(C(=O)Cc2ccccc2)C1 unit_label=µM relation_symbol== reported_measurement=1.885
compound=CN1CC=C(C(=O)Cc2ccccc2)CC1 unit_label=µM relation_symbol== reported_measurement=3.5
compound="CCC(=O)C1=CCCN(C)C1 [ARECOLON]" unit_label=µM relation_symbol== reported_measurement=1.95
compound=CN1CC=C(C(=O)c2ccccc2)CC1 unit_label=µM relation_symbol== reported_measurement=3.75
compound=CC#CC(=O)C1=CCN(C)CC1 unit_label=µM relation_symbol== reported_measurement=2.69
compound=CCCCC(=O)C1=CCCN(C)C1 unit_label=µM relation_symbol== reported_measurement=1.385
compound=CN1CCC=C(C(=O)c2ccccc2)C1 unit_label=µM relation_symbol== reported_measurement=2.45
compound=CCCC(=O)C1=CCN(C)CC1 unit_label=µM relation_symbol=> reported_measurement=5
compound=CCCCC(=O)C1=CCN(C)CC1 unit_label=µM relation_symbol== reported_measurement=4.345

----------
- Measurement Description: Selectivity for nicotinic agonist activity was determined between Ki for [3H]-OXO-M and to that for [3H]MCC
- Assay type: functional
Measurement Label: Selectivity

compound_structure=CN1CC=C(C(=O)Cc2ccccc2)CC1 relation_symbol== reported_measurement=4
compound_structure=CN1CC=C(C(=O)c2ccccc2)CC1 relation_symbol== reported_measurement=5
compound_structure=CC#CC(=O)C1=CCN(C)CC1 relation_symbol== reported_measurement=122
compound_structure=CN1CC=C(C(=O)C(C)(C)C)CC1 relation_symbol== reported_measurement=110
compound_structure=CCC(=O)C1=CCCN(C)C1 relation_symbol== reported_measurement=336
compound_structure=CCCC(=O)C1=CCN(C)CC1 relation_symbol=> reported_measurement=74
compound_structure=CCC(=O)C1=CCN(C)CC1 relation_symbol=> reported_measurement=195
compound_structure=CN1CCC=C(C(=O)Cc2ccccc2)C1 relation_symbol== reported_measurement=15
compound_structure=CCCC(=O)C1=CCCN(C)C1 relation_symbol== reported_measurement=208
compound_structure=CN1CCC=C(C(=O)c2ccccc2)C1 relation_symbol== reported_measurement=14
compound_structure=CCCCC(=O)C1=CCN(C)CC1 relation_symbol== reported_measurement=29
compound_structure=CC(=O)C1=CCCN(C)C1 relation_symbol== reported_measurement=134
compound_structure=CC(=O)C1=CCN(C)CC1 relation_symbol== reported_measurement=112
compound_structure=CC#CC(=O)C1=CCCN(C)C1 relation_symbol== reported_measurement=284
compound_structure=CCCCC(=O)C1=CCCN(C)C1 relation_symbol== reported_measurement=23

----------
# maps each entry to its Ki
- Target Desc: Neuronal acetylcholine receptor
- Measurement Description: Binding affinity for Nicotinic acetylcholine receptor site in rat cortex was determined using [3H]MCC as radioligand
Measurement Label: Ki (nM)

compound_structure=CN1CC=C(C(=O)c2ccccc2)CC1 reported_measurement=766
compound_structure=CCC(=O)C1=CCCN(C)C1 reported_measurement=5.8
compound_structure=CC(=O)C1=CCCN(C)C1 reported_measurement=32.7
compound_structure=CCCC(=O)C1=CCN(C)CC1 reported_measurement=67.3
compound_structure=CCCCC(=O)C1=CCCN(C)C1 reported_measurement=61.3
compound_structure=CN1CC=C(C(=O)Cc2ccccc2)CC1 reported_measurement=946
compound_structure=COC(=O)C1=CCCN(C)C1 reported_measurement=224
compound_structure=CN1CCC=C(C(=O)Cc2ccccc2)C1 reported_measurement=123
compound_structure=CC(=O)C1=CCN(C)CC1 reported_measurement=48.4
compound_structure=CC#CC(=O)C1=CCN(C)CC1 reported_measurement=22
compound_structure=CN1CCC=C(C(=O)c2ccccc2)C1 reported_measurement=178
compound_structure=CN1CC=C(C(=O)C(C)(C)C)CC1 reported_measurement=56.7
compound_structure=CC#CC(=O)C1=CCCN(C)C1 reported_measurement=5.8
compound_structure=CCCCC(=O)C1=CCN(C)CC1 reported_measurement=149
compound_structure=CCC(=O)C1=CCN(C)CC1 reported_measurement=25.7
compound_structure=CCCC(=O)C1=CCCN(C)C1 reported_measurement=13.1
